Measured REC, listed per entry.
Biological target: DNA topoisomerase 1 (Homo sapiens) (UniProt P11387)
Sequence (whole entry): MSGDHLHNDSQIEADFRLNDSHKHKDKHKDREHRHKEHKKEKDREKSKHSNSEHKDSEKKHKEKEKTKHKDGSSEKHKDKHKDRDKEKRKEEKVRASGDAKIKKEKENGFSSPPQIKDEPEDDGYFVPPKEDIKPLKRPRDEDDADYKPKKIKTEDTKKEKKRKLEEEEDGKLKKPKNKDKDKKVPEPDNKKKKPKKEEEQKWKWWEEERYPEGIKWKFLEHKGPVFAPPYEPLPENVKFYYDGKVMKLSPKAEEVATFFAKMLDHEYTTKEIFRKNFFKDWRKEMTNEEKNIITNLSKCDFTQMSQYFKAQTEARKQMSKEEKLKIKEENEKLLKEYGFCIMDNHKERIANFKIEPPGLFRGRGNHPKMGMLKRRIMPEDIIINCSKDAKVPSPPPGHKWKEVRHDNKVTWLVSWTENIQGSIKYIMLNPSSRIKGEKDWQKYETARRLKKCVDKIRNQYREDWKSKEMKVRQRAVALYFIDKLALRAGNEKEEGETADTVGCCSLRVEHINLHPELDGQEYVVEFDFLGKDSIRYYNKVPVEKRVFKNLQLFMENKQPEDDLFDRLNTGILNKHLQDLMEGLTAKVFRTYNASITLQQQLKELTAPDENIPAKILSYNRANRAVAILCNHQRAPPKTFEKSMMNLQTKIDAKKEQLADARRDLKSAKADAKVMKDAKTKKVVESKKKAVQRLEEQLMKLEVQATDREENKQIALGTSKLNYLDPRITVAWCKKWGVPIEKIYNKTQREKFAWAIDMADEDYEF
Property Name: REC

1) CC[C@@]1(O)C(=O)OCc2c1cc1n(c2=O)Cc2cc3ccccc3nc2-1
0.5
2) CCCCn1c(=O)c2cc([N+](=O)[O-])ccc2c2cnc3cc4c(cc3c21)OCO4
10
3) CN(C)CCn1c(=O)c2cccc(N)c2c2cnc3cc4c(cc3c21)OCO4
15
4) CCCCn1c(=O)c2cc(N)ccc2c2cnc3cc4c(cc3c21)OCO4
500
5) COc1cc2c(=O)n(CCN(C)C)c3c4cc5c(cc4nnc3c2cc1OC)OCO5
0.3
6) CN(C)CCn1c(=O)c2cccc([N+](=O)[O-])c2c2cnc3cc4c(cc3c21)OCO4
1000
7) CN(C)CCn1c(=O)c2cc(N)ccc2c2cnc3cc4c(cc3c21)OCO4
8
8) CN(C)CCn1c(=O)c2ccc([N+](=O)[O-])cc2c2cnc3cc4c(cc3c21)OCO4
0.1
9) CN(C)CCn1c(=O)c2ccccc2c2cnc3cc4c(cc3c21)OCO4
6
10) CC[C@@]1(O)C(=O)OCc2c1cc1n(c2=O)Cc2cc3c(CN(C)C)c(O)ccc3nc2-1
1
11) CN1CCN(c2ccnc3cc4c(cc23)OCO4)C(=O)c2cc([N+](=O)[O-])ccc21
1000
12) CN(C)CCn1c(=O)c2ccc(N)cc2c2cnc3cc4c(cc3c21)OCO4
0.5
13) CN(C)CCn1c(=O)c2cc([N+](=O)[O-])ccc2c2cnc3cc4c(cc3c21)OCO4
0.2

Attribution: ChEMBL document CHEMBL1145000
